The reader will find reported Mean diff, hSERT efflux ± Mon (Šídák's multiple comparisons test) values listed item by item below.
- assayTarget: hSERT (Homo sapiens, UniProt P31645)
- Construct: expressed in transfected cells
- Sequence (P31645 whole entry): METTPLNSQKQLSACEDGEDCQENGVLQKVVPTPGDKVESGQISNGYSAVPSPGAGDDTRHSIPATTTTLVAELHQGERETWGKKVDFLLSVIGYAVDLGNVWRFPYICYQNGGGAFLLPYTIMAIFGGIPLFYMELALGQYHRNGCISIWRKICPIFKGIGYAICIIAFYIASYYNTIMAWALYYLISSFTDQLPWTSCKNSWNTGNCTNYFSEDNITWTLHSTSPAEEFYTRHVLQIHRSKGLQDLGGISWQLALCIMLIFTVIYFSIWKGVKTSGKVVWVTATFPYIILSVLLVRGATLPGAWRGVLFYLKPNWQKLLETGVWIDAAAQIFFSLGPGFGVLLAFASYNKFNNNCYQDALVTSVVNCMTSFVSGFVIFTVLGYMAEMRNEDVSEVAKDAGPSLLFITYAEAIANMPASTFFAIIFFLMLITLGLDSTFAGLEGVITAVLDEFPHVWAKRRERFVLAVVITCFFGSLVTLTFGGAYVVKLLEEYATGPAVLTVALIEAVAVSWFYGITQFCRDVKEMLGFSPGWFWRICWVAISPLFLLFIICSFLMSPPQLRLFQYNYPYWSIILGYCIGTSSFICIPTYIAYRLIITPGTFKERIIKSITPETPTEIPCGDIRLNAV
- Format: cell-based
- testSettings: Row 5 (time fraction); drug alone vs drug + monensin (Mon)

compound	assayTarget	reportedValue
CCCC(Cc1cccc(F)c1)N1CCCC1 (stereo not drawn)	hSERT (Homo sapiens, UniProt P31645)	-0,1369
CCCC(Cc1ccc(F)cc1)N1CCCC1 (stereo not drawn)	hSERT (Homo sapiens, UniProt P31645)	-0,1983

Next item in the queue.
Query block: Bench note: what Mean diff, hSERT efflux ± Mon (Šídák's multiple comparisons test) did CCCC(Cc1ccc(C)cc1)N1CCCC1 (stereo not drawn) show?
Result block: -0,3006

---

- assayTarget: hSERT (Homo sapiens, UniProt P31645)
- Construct: expressed in transfected cells
- Assay type: cell-based
- testSettings: Row 6 (time fraction); drug alone vs drug + monensin (Mon)
assayMetric: Mean diff, hSERT efflux ± Mon (Šídák's multiple comparisons test)

Solved entries:
compound	reportedValue
CCCC(Cc1ccc(F)cc1)N1CCCC1 (stereo not drawn) [4-Fluoroprolintane]	-0,2323
CCCC(Cc1ccc(C)cc1)N1CCCC1 (stereo not drawn) [4-Methylprolintane]	-0,3681

Next item in the queue.
Query block: For the record CCCC(Cc1cccc(F)c1)N1CCCC1 (stereo not drawn) [3-Fluoroprolintane] , what value of Mean diff, hSERT efflux ± Mon (Šídák's multiple comparisons test) is listed for hSERT (Homo sapiens, UniProt P31645)?
Result block: -0,2296

---

The reader will find reported Mean diff, hSERT efflux ± Mon (Šídák's multiple comparisons test) values listed item by item below.
- assayTarget: hSERT (Homo sapiens, UniProt P31645)
- Construct: expressed in transfected cells
- Type: cell-based
- testSettings: Row 3 (time fraction); drug alone vs drug + monensin (Mon)

compound	reportedValue
CCCC(Cc1ccc(F)cc1)N1CCCC1 (stereo not drawn)	0,004889
CCCC(Cc1ccc(C)cc1)N1CCCC1 (stereo not drawn)	-0,04278

Next item in the queue.
Query block: Bench note: what Mean diff, hSERT efflux ± Mon (Šídák's multiple comparisons test) did CCCC(Cc1cccc(F)c1)N1CCCC1 (stereo not drawn) show?
Result block: 0,02067

---

The reader will find reported Mean diff, hSERT efflux ± Mon (Šídák's multiple comparisons test) values listed item by item below.
- assayTarget: hSERT (Homo sapiens, UniProt P31645)
- Construct: expressed in transfected cells
- Format: cell-based
- testSettings: Row 9 (time fraction); drug alone vs drug + monensin (Mon)

Solved entries:
compound	reportedValue
CCCC(Cc1ccc(C)cc1)N1CCCC1 (stereo not drawn)	-5,748
CCCC(Cc1cccc(F)c1)N1CCCC1 (stereo not drawn)	-7,510

Next item in the queue.
Query block: Bench note: what Mean diff, hSERT efflux ± Mon (Šídák's multiple comparisons test) did CCCC(Cc1ccc(F)cc1)N1CCCC1 (stereo not drawn) show?
Result block: -9,598

---

The reader will find reported Mean diff, hSERT efflux ± Mon (Šídák's multiple comparisons test) values listed item by item below.
- assayTarget: hSERT (Homo sapiens)
- Construct: expressed in transfected cells
- Assay type: cell-based
- testSettings: Row 11 (time fraction); drug alone vs drug + monensin (Mon)

molecule	reportedValue
CCCC(Cc1ccc(F)cc1)N1CCCC1 (stereo not drawn) [4-Fluoroprolintane]	-7,454
CCCC(Cc1cccc(F)c1)N1CCCC1 (stereo not drawn) [3-Fluoroprolintane]	-7,140

Query block: For the record CCCC(Cc1ccc(C)cc1)N1CCCC1 (stereo not drawn) [4-Methylprolintane] , what value of Mean diff, hSERT efflux ± Mon (Šídák's multiple comparisons test) is listed for hSERT (Homo sapiens)?
Result block: -5,744

---

The reader will find reported Mean diff, hSERT efflux ± Mon (Šídák's multiple comparisons test) values listed item by item below.
- assayTarget: hSERT (Homo sapiens)
- Construct: expressed in transfected cells
- Format: cell-based
- testSettings: Row 10 (time fraction); drug alone vs drug + monensin (Mon)
- Experimental: A day prior to the experiment, HEK293 cells stably expressing hSERT or rat SERT (rSERT) were seeded at a density of 100,000 cells per channel into 6 channel flow ibidi slides (Gräfelfing, Germany). […] To assess residual radioactivity within the cells, they were lysed with 1% sodium dodecyl sulfate (SDS), and three final fractions were obtained. The measured tritiated substrate in each fraction was expressed as a percentage of the initial tritiated substrate present at the start of that fraction. […]

Solved entries:
compound	reportedValue
CCCC(Cc1ccc(C)cc1)N1CCCC1 (stereo not drawn)	-5,723
CCCC(Cc1ccc(F)cc1)N1CCCC1 (stereo not drawn)	-8,382

Next item in the queue.
Query block: Bench note: what Mean diff, hSERT efflux ± Mon (Šídák's multiple comparisons test) did CCCC(Cc1cccc(F)c1)N1CCCC1 (stereo not drawn) show?
Result block: -7,391

---

The reader will find reported IC50 values listed item by item below.
- assayTarget: hDAT (Homo sapiens)
- Sequence (Q01959 whole entry): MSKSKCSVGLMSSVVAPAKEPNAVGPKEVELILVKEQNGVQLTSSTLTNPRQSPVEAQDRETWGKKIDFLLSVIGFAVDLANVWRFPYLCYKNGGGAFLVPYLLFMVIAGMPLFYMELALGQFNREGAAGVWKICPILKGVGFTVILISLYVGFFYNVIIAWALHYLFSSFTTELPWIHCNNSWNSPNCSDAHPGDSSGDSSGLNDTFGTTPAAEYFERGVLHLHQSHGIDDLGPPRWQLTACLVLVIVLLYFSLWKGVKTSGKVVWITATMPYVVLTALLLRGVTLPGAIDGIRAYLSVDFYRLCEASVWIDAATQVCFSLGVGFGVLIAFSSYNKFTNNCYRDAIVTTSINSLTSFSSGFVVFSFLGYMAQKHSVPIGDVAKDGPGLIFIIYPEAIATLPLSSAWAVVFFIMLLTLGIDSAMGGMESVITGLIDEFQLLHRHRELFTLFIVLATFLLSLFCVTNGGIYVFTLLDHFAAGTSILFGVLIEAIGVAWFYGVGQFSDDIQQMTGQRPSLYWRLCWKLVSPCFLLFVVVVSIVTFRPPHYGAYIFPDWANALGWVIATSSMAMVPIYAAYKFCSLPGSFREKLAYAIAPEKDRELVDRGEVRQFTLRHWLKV
- testDescription: Uptake inhibition assay ([3H]DA) in transfected HEK293 cells
Provide a numeric answer, followed by its unit.

compound	reportedValue
CCCC(Cc1cccc(C)c1)N1CCCC1 (stereo not drawn)	56 nM

Query block: Bench note: what IC50 did CCCC(Cc1cccc(F)c1)N1CCCC1 (stereo not drawn) show?
Result block: 64 nM

Query block: Now this one: CCCC(Cc1ccc(C)cc1)N1CCCC1 (stereo not drawn)
Result block: 16 nM

---

- assayTarget: rDAT (Rattus norvegicus, UniProt P23977)
- Construct: As a means to evaluate transporter activity of prolintane analogs in native tissue preparation; from tissue; host or cells: rat caudate synaptosomes
- Sequence (P23977 whole entry): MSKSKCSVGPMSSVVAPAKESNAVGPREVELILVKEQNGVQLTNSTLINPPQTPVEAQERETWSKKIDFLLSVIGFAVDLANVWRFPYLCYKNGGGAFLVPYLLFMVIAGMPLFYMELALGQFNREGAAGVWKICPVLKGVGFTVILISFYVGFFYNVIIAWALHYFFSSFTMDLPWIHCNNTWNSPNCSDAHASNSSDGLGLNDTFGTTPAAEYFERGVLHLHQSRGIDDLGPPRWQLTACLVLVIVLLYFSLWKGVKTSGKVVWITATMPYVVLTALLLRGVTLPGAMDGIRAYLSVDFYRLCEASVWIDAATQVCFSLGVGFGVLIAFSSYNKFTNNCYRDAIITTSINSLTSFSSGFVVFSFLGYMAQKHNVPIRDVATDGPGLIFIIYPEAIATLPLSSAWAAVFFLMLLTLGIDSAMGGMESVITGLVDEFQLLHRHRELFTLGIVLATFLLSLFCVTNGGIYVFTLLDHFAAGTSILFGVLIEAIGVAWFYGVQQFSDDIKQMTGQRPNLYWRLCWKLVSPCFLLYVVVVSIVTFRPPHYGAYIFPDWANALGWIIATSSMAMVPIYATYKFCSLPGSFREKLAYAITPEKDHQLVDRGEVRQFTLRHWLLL
- testDescription: Uptake inhibition assay ([3H]dopamine) in rat brain synaptosomes
- Type: biochemical
- testSettings: rat isoform (r); 1/DAT IC50 / 1/SERT IC50
The reader will find reported DAT/SERT ratio values listed item by item below.
Output spec: single numeric token, no unit.

Solved entries:
compound	assayMetric	reportedValue
CCCC(Cc1cccc(C)c1)N1CCCC1 (stereo not shown) [3-Methylprolintane]	DAT/SERT ratio	1.25
CCCC(Cc1ccccc1F)N1CCCC1 (stereo not shown) [2-Fluoroprolintane]	DAT/SERT ratio	19
CCCC(Cc1ccccc1C)N1CCCC1 (stereo not shown) [2-Methylprolintane]	DAT/SERT ratio	1

Next item in the queue.
Query block: Bench note: what DAT/SERT ratio did CCCC(Cc1cccc(F)c1)N1CCCC1 (stereo not shown) [3-Fluoroprolintane] show?
Result block: 9

---

- assayTarget: hSERT (Homo sapiens, UniProt P31645)
- Construct: expressed in transfected cells
- Format: cell-based
- testSettings: Row 7 (time fraction); drug alone vs drug + monensin (Mon)
assayMetric: Mean diff, hSERT efflux ± Mon (Šídák's multiple comparisons test)

molecule	reportedValue
CCCC(Cc1cccc(F)c1)N1CCCC1 (stereo not drawn)	-0,2910
CCCC(Cc1ccc(F)cc1)N1CCCC1 (stereo not drawn)	-0,3017

Next item in the queue.
Query block: For the record CCCC(Cc1ccc(C)cc1)N1CCCC1 (stereo not drawn) , what value of Mean diff, hSERT efflux ± Mon (Šídák's multiple comparisons test) is listed for hSERT (Homo sapiens, UniProt P31645)?
Result block: -0,4242

---

- assayTarget: hSERT (Homo sapiens, UniProt P31645)
- Construct: expressed in transfected cells
- Assay type: cell-based
- testSettings: Row 2 (time fraction); drug alone vs drug + monensin (Mon)
The reader will find reported Mean diff, hSERT efflux ± Mon (Šídák's multiple comparisons test) values listed item by item below.

Solved entries:
molecule	reportedValue
CCCC(Cc1cccc(F)c1)N1CCCC1 (stereo not drawn)	-0,003000
CCCC(Cc1ccc(F)cc1)N1CCCC1 (stereo not drawn)	0,02200

Next item in the queue.
Query block: For the record CCCC(Cc1ccc(C)cc1)N1CCCC1 (stereo not drawn) , what value of Mean diff, hSERT efflux ± Mon (Šídák's multiple comparisons test) is listed for hSERT (Homo sapiens, UniProt P31645)?
Result block: 0,005667

---

- assayTarget: hSERT (Homo sapiens)
- Construct: expressed in transfected cells
- Type: cell-based
- testSettings: Row 12 (time fraction); drug alone vs drug + monensin (Mon)
assayMetric: Mean diff, hSERT efflux ± Mon (Šídák's multiple comparisons test)

compound	assayTarget	reportedValue
CCCC(Cc1ccc(C)cc1)N1CCCC1 (stereo not drawn) [4-Methylprolintane]	hSERT (Homo sapiens)	-5,949

Query block: Bench note: what Mean diff, hSERT efflux ± Mon (Šídák's multiple comparisons test) did CCCC(Cc1cccc(F)c1)N1CCCC1 (stereo not drawn) [3-Fluoroprolintane] show?
Result block: -7,011

Query block: Now this one: CCCC(Cc1ccc(F)cc1)N1CCCC1 (stereo not drawn) [4-Fluoroprolintane]
Result block: -6,666
